assay: antifungal drug efflux pump blockers, triplex strains – S. cerevisiae, Nile Red, multiplex, primary screen (AID 485275);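 note: Nile Red retained in pooled yeast measured as flow cytometry median fluorescence; 0% = buffer negative control and 100% = Enniatin B positive control; higher means more Nile Red kept so more efflux inhibition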; conditions: S. cerevisiae Candida pump triplex, at 10 µM, active compounds read high
The campaign covered roughly 330,000 compounds. About 1,400 (0.42%) were called active. The entries come from a sample that favours actives as a whole.
Quick reference for inhibition among some compounds
Numbers only; they are read as %.

A selection of reference data follows.
1. NC(=O)c1cc(S(=O)(=O)NCCCc2ccco2)cs1 | -0.02
2. Cc1cc(C(=O)NNC(=O)c2cccc(S(=O)(=O)N3CCOCC3)c2)c2ccccc2n1 | 0

Which value of inhibition has been reported for CSCCC(NC(=O)COc1ccccc1)C(=O)OCC(=O)c1cc2ccccc2o1 (stereo not drawn) in the records? -0.18

* * *

assay: antifungal drug efflux pump blockers, triplex strains – S. cerevisiae, Nile Red, multiplex, primary screen (AID 485275);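 note: Nile Red retained in pooled yeast measured as flow cytometry median fluorescence; 0% = buffer negative control and 100% = Enniatin B positive control; higher means more Nile Red kept so more efflux inhibition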; conditions: S. cerevisiae Candida pump triplex, at 10 µM
About 1,400 (0.42%) of roughly 330,000 compounds were called active.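 Rule for the calls: active = plate passing quality check with inhibition over a set limit, or well fluorescence over plate mean plus 4 SD; inactive = the rest.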 What follows is part of a selection rich in actives, with near analogues and random picks from the rest.
Outcomes you can answer with include only these: active, inactive

1. O=C(N/N=C\c1cc2c(cc1Cl)OCO2)c1ccc(Br)s1 | inactive
2. C/C(N)=C(/C#N)C(=O)COC(=O)c1cc(-c2ccc(C)cc2)nc2ccccc12 | inactive
3. CC1CC(C)CN(C(=O)C2CC(=O)N(c3ccc(F)cc3)C2)C1 (stereo not given) | inactive
4. O=c1c2ccccc2oc2nc(C3CCCCC3)n(Cc3ccco3)c(=O)c12 | inactive
5. CCOc1ccc(NC(=O)c2cccc3c2C(=O)N(CC2CCCO2)C3)cc1 (stereo not given) | inactive
6. Nc1nnc(C2CCCC2)s1 | inactive
7. CSCCC(NC(=O)c1ccccc1)C(=O)N1CCCCCCC1 (stereo not given) | inactive
8. CCc1ccc(NC(=O)Cn2ncn3c(cc4ccccc43)c2=O)cc1 | active
9. COc1cccc(N(CC(=O)NC2CCCC2)C(=O)Cn2nnc(-c3ccc(C)o3)n2)c1 | inactive
10. Cc1ccc(NC(=O)COC(=O)C2C3CC4OC(=O)C2C4C3)cc1Cl (stereo not given) | inactive

Outcome logged for "Cc1ccc(C(=O)Nc2ccc(NC(=O)c3cccs3)cc2)c(C)c1" in this assay: inactive

Outcome logged for "O=C(Nc1ccc(NC(=O)c2cccs2)cc1)c1ccc2ccccc2c1" in this assay: active

Outcome logged for "CCCCCCCCCCCCCCCC(=O)OC/C=C(C)/C=C/C=C(C)/C=C/C1=C(C)CCCC1(C)C" in this assay: active

Outcome logged for "O=C(c1ccc(Cl)nc1)N1CCN(S(=O)(=O)c2ccc3c(c2)OCCO3)CC1" in this assay: inactive

Outcome logged for "C/C(N)=C(/C#N)C(=O)COC(=O)c1cc(-c2cccc(Br)c2)nc2ccccc12" in this assay: active

Outcome logged for CSCC(NS(=O)(=O)c1ccc(C)cc1)C(=O)O (stereo not given) in this assay: inactive

Outcome logged for "CCCCN1C(=O)/C(=C/C=C2/C=Cc3ccccc3N2CC)SC1=S" in this assay: active

* * *

assay: antifungal drug efflux pump blockers, triplex strains – S. cerevisiae, Nile Red, multiplex, primary screen (AID 485275);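 note: Nile Red retained in pooled yeast measured as flow cytometry median fluorescence; 0% = buffer negative control and 100% = Enniatin B positive control; higher means more Nile Red kept so more efflux inhibition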; settings: S. cerevisiae Candida pump triplex, at 10 µM
Among all 330,000 compounds or so, about 1,400 (0.42%) were called active.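 The calls were made as follows: active = plate passing quality check with inhibition over a set limit, or well fluorescence over plate mean plus 4 SD; inactive = the rest.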 Many of the other results were omitted from the sample, so actives are more common in it than they were.
Outcomes you can answer with include only these: active, inactive

1) COc1ccc(NC(=O)Cn2ncn3c(cc4ccccc43)c2=O)c(OC)c1OC | inactive
2) CC1(C(=O)NNC(=S)NCC2CCCO2)CC1(Cl)Cl (stereo not drawn) | inactive

Switching to the query record.
Outcome logged for CSCCC(NS(=O)(=O)c1ccc(C)cc1)C(=O)N1CCCC1 (stereo not drawn) in this assay: active
